Hello, the source for this data is patent US20250120932A1, in case you need it.

METHOD SUMMARY: Crossover pharmacokinetic study of Bumetanide Dibenzylamide formulations (IN, SL, IM, PO, SC, IR) in Beagle dogs, plasma LC-MS/MS
Assay type: in vivo
EXPERIMENTAL CONTEXT: both sexes, Beagle, dog, plasma, 30 mg, SL, 30 mg, read-out: Tmax
READOUT TYPE: Tmax (h)
Numeric answer only, unit h assumed.

### Prompt Name the recorded Tmax of the item CCCCNc1cc(C(=O)N(Cc2ccccc2)Cc2ccccc2)cc(S(N)(=O)=O)c1Oc1ccccc1 [Bumetanide Dibenzylamide] in your answer.
### Response 2

* * *

METHOD SUMMARY: Pharmacokinetic study in cynomolgus monkeys after oral (nasogastric) gavage, sublingual and intravenous administration
Assay type: in vivo
EXPERIMENTAL CONTEXT: both sexes, cynomolgus monkey, plasma, oral, 30 mg/kg, Plasma Bumetanide Dibenzylamide concentration, Mean, monkey, NG 30 mg/kg, Second Formulation (Form 3), 0.50 h, N=4
READOUT TYPE: concentration at 0.5 h

### Prompt Name the recorded concentration at 0.5 h of the item CCCCNc1cc(C(=O)N(Cc2ccccc2)Cc2ccccc2)cc(S(N)(=O)=O)c1Oc1ccccc1 [Bumetanide Dibenzylamide] in your answer.
### Response 2.85 ng/mL

* * *

METHOD SUMMARY: Pharmacokinetic study in cynomolgus monkeys after oral (nasogastric) gavage, sublingual and intravenous administration
Format: in vivo
EXPERIMENTAL CONTEXT: both sexes, cynomolgus monkey, plasma, oral, 30 mg/kg, Plasma Bumetanide Dibenzylamide concentration, Mean, monkey, NG 30 mg/kg, First Formulation (Form 1), 32.00 h, N=4
READOUT TYPE: concentration at 32 h (ng/mL)
Numeric answer only, unit ng/mL assumed.

### Prompt Name the recorded concentration at 32 h of the item CCCCNc1cc(C(=O)N(Cc2ccccc2)Cc2ccccc2)cc(S(N)(=O)=O)c1Oc1ccccc1 [Bumetanide Dibenzylamide] in your answer.
### Response 4.51

* * *

METHOD SUMMARY: Pharmacokinetic study in cynomolgus monkeys after oral (nasogastric) gavage, sublingual and intravenous administration
Format: in vivo
EXPERIMENTAL CONTEXT: cynomolgus, cynomolgus monkey, plasma, intravenous, 2 mg/kg, Plasma Bumetanide Dibenzylamide concentration, Median, monkey, dose column 2 mg/kg (title 30 mg/kg), Third Formulation (Form 4), 2.00 h, N=4
READOUT TYPE: concentration at 2 h
Quick note: unit goes after the number.

### Prompt Name the recorded concentration at 2 h of the item CCCCNc1cc(C(=O)N(Cc2ccccc2)Cc2ccccc2)cc(S(N)(=O)=O)c1Oc1ccccc1 [Bumetanide Dibenzylamide] in your answer.
### Response 297 ng/mL

* * *

METHOD SUMMARY: Pharmacokinetic study in cynomolgus monkeys after oral (nasogastric) gavage, sublingual and intravenous administration
Assay type: in vivo
EXPERIMENTAL CONTEXT: both sexes, cynomolgus monkey, plasma, oral, 30 mg/kg, Plasma Bumetanide Dibenzylamide concentration, Median, monkey, NG 30 mg/kg, Second Formulation (Form 3), 1.00 h, N=4
READOUT TYPE: concentration at 1 h

### Prompt Name the recorded concentration at 1 h of the item CCCCNc1cc(C(=O)N(Cc2ccccc2)Cc2ccccc2)cc(S(N)(=O)=O)c1Oc1ccccc1 [Bumetanide Dibenzylamide] in your answer.
### Response 9.43 ng/mL

* * *

METHOD SUMMARY: in vitro
EXPERIMENTAL CONTEXT: human, Caco-2, pH 7.4, Mean % Solution Recovery A to B
For each of the compounds below, state its recovery at 2 h.
Quick note: unit goes after the number.

### Prompt Name the recorded recovery at 2 h of the item CC(C)(C)NCC(O)COc1cccc2c1CC(O)C(O)C2 (stereo not drawn) [nadolol, reference compound] in your answer.
### Response 97%

### Prompt Name the recorded recovery at 2 h of the item COCCc1ccc(OCC(O)CNC(C)C)cc1 (stereo not drawn) [metoprolol, reference compound] in your answer.
### Response 94.7%

### Prompt Name the recorded recovery at 2 h of the item C[C@H]1O[C@@H](O[C@H]2[C@@H](O)C[C@H](O[C@H]3[C@@H](O)C[C@H](O[C@H]4CC[C@@]5(C)[C@H](CC[C@@H]6[C@@H]5C[C@@H](O)[C@]5(C)[C@@H](C7=CC(=O)OC7)CC[C@]65O)C4)O[C@@H]3C)O[C@@H]2C)C[C@H](O)[C@@H]1O [Digoxin, reference compound] in your answer.
### Response 94.7%

* * *

METHOD SUMMARY: Pharmacokinetic study in cynomolgus monkeys after oral (nasogastric) gavage, sublingual and intravenous administration
Format: in vivo
EXPERIMENTAL CONTEXT: cynomolgus, cynomolgus monkey, plasma, intravenous, 2 mg/kg, Plasma Bumetanide Dibenzylamide concentration, Median, monkey, dose column 2 mg/kg (title 30 mg/kg), Third Formulation (Form 4), 4.00 h, N=4
READOUT TYPE: concentration at 4 h (ng/mL)
Numeric answer only, unit ng/mL assumed.

### Prompt Name the recorded concentration at 4 h of the item CCCCNc1cc(C(=O)N(Cc2ccccc2)Cc2ccccc2)cc(S(N)(=O)=O)c1Oc1ccccc1 [Bumetanide Dibenzylamide] in your answer.
### Response 109

* * *

METHOD SUMMARY: Crossover pharmacokinetic study of Bumetanide Dibenzylamide formulations (IN, SL, IM, PO, SC, IR) in Beagle dogs, plasma LC-MS/MS
Format: in vivo
EXPERIMENTAL CONTEXT: both sexes, Beagle, dog, plasma, 30 mg, SL
READOUT TYPE: AUC(0-inf) (ng·h/mL)
Numeric answer only, unit ng·h/mL assumed.

### Prompt Name the recorded AUC(0-inf) of the item CCCCNc1cc(C(=O)N(Cc2ccccc2)Cc2ccccc2)cc(S(N)(=O)=O)c1Oc1ccccc1 [Bumetanide Dibenzylamide] in your answer.
### Response 17.7

* * *

METHOD SUMMARY: Pharmacokinetic profile after single intravenous or oral gavage dose in rats
EXPERIMENTAL CONTEXT: male, Hsd: Sprague Dawley, rat, plasma, iv, 10 mg/kg
READOUT TYPE: Vd
Quick note: unit goes after the number.

### Prompt Name the recorded Vd of the item CCCCNc1cc(C(=O)N(Cc2ccccc2)Cc2ccccc2)cc(S(N)(=O)=O)c1Oc1ccccc1 [Bumetanide Dibenzylamide] in your answer.
### Response 10.1 L/kg

* * *

METHOD SUMMARY: Pharmacokinetic study in cynomolgus monkeys after oral (nasogastric) gavage, sublingual and intravenous administration
Format: in vivo
EXPERIMENTAL CONTEXT: cynomolgus monkey, plasma, other: sublingual, 5 mg/kg, Plasma Bumetanide Dibenzylamide concentration, Median, monkey, SL, dose column 5 mg/kg (title 30 mg/kg), Fourth Formulation (Form 2), 0.00 h, N=4
READOUT TYPE: concentration at 0 h (ng/mL)
Numeric answer only, unit ng/mL assumed.

### Prompt Name the recorded concentration at 0 h of the item CCCCNc1cc(C(=O)N(Cc2ccccc2)Cc2ccccc2)cc(S(N)(=O)=O)c1Oc1ccccc1 [Bumetanide Dibenzylamide] in your answer.
### Response 0

* * *

METHOD SUMMARY: Pharmacokinetic study in cynomolgus monkeys after oral (nasogastric) gavage, sublingual and intravenous administration
Type: in vivo
EXPERIMENTAL CONTEXT: cynomolgus monkey, plasma, other: sublingual, 5 mg/kg, Plasma Bumetanide Dibenzylamide concentration, monkey, SL, dose column 5 mg/kg (title 30 mg/kg), Fourth Formulation (Form 2), 0.50 h, individual animals
Procedure: A pharmacokinetic study was done in cynomolgus monkeys following single oral (nasogastric) gavage, sublingual, and intravenous administration. […] Calibration curves, blanks, and analytical QCs were prepared in monkey plasma (K2EDTA). The extracts were evaporated to dryness, reconstituted, and then analyzed by LC-MS/MS. The calibration range was 0.250-250 ng/mL for both analytes. If the criteria for either the calibration curve or the analytical QCs were not met, the analytical run was rejected. […]
READOUT TYPE: concentration at 0.5 h (ng/mL)
Numeric answer only, unit ng/mL assumed.

### Prompt Name the recorded concentration at 0.5 h of the item CCCCNc1cc(C(=O)N(Cc2ccccc2)Cc2ccccc2)cc(S(N)(=O)=O)c1Oc1ccccc1 [Bumetanide Dibenzylamide] in your answer.
### Response 0
